Provenance of the data: patent US6291247A

Tested on: PC12 cells
Run description: NGF-dependent survival of PC12 cells
Assay type: cell-based, rat
Applied conditions: rat, pc12 cells, 100 µM
Measurement kind: Survival @ 1 nM NGF (% control)
Answers are plain numbers, in % control.

> print(dat)
         compound  units.symbol  recorded.measurement
1  [Zn+2] [Zn^2+]     % control                    84
2  [Mn+2] [Mn^2+]     % control                    59
3  [Pt+2] [Pt^2+]     % control                    92
4  [Cu+2] [Cu^2+]     % control                    -6
5  [Pd+2] [Pd^2+]     % control                   125

Now look at this one.
Suppose we examine the compound [Au+3] [Au^3+] ; what Survival @ 1 nM NGF value has been reported? -8

---

Tested on: PC12 cells
Run description: Toxicity to PC12 cells
Format: cell-based, rat
Applied conditions: 100 μM
Toxicity (PC12 cell viability) strictly less than 80 % control = y. Otherwise n.

Examples from the recorded data:
> print(dat)
         molecule  cat
1  [Hg+2] [Hg^2+]    y
2  [Cd+2] [Cd^2+]    y
3  [Pd+2] [Pd^2+]    y
4  [Pt+2] [Pt^2+]    n
5  [Ni+2] [Ni^2+]    n
6  [Co+2] [Co^2+]    y
7  [Cu+2] [Cu^2+]    y
8  [Zn+2] [Zn^2+]    n

Pending molecule:
Is Toxicity (PC12 cell viability) strictly under 80 % control for the entry [Au+3] [Au^3+] ? n

---

What Survival @ 50 pM NGF was measured for each of the following?
System: PC12 cells
Run description: NGF-dependent survival of PC12 cells
Assay type: cell-based, rat
Applied conditions: rat, pc12 cells, 100 µM

> print(dat)
         compound      measurement.kind  recorded.measurement
1  [Zn+2] [Zn^2+]  Survival @ 50 pM NGF     67 ± 19 % control
2  [Mn+2] [Mn^2+]  Survival @ 50 pM NGF      91 ± 5 % control
3  [Pd+2] [Pd^2+]  Survival @ 50 pM NGF      82 ± 9 % control

Record Survival @ 50 pM NGF for all entries; do not skip any.
1. [Cu+2] [Cu^2+]
2. [Pt+2] [Pt^2+]

-2 ± 19 % control
74 ± 21 % control

Suppose we examine the compound [Au+3] [Au^3+] ; what Survival @ 50 pM NGF value has been reported? 0.1 ± 9 % control

---

Target system: p75^NTR and TrkA (Mus musculus)
Construct: these cells express both NGF receptor types; endogenous in cells; host or cells: PC12 rat pheochromocytoma cells
Sequence (P01139 122-239): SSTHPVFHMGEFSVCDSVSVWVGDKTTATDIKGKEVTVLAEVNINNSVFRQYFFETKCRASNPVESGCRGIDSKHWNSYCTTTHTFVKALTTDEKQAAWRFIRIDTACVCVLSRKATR
Run description: Binding of 125I-NGF to PC12 cells (p75NTR + TrkA)
Parameters: species or system rat
Applied conditions: 100 μM, 125I-NGF; 120 min
Total Binding to PC12 cells strictly less than 70 % control = True. Otherwise False.

Examples from the recorded data:
> print(dat)
   mol.smiles    cat
1      [Mn+2]  False
2      [Cu+2]   True
3      [Zn+2]   True
4      [Au+3]  False

Pending compound:
Is Total Binding to PC12 cells strictly under 70 % control for the entry [Pd+2] ? True
